Values were extracted from PubChem BioAssay AID1347056.

# maps each entry to its inhibition
Procedure Summary: TROY pathway blockers in reporter cells – Q293 LMP1-TROYcd cells, NF-kB luciferase, uHTS, primary screen (AID 1347056)
Setup Conditions: 4 h, at 10 µM, stronger effect = higher value
The whole screen tested about 360,000 compounds, of which about 3,600 (1%) were called active. The full list was thinned out, with actives kept by preference.
Express it in %; write the number only.

A selection of reference data follows.
Record summary for O=C(Nc1ccc(Cl)cc1)c1cc2nc(C3CC3)cc(C(F)(F)F)n2n1 : reported inhibition = -25.1

Record summary for Cc1ccc2nc(SCc3nnc(-c4ccccc4[N+](=O)[O-])o3)c(C#N)cc2c1 : reported inhibition = 2.86

Record summary for Nc1nc(SCC(=O)Nc2cc(C(F)(F)F)ccc2Cl)[nH]c(=O)c1NC(=O)c1ccco1 : reported inhibition = -8.07

Record summary for CC(NCC(=O)Nc1cc(Cl)cc(Cl)c1)c1ccccc1 (stereo not given) : reported inhibition = 17.5

Record summary for OCCNCCOc1ccc(Cl)c(Cl)c1 : reported inhibition = 10.3

Record summary for O=C(Cn1c(NCCO)nc2ccccc21)c1ccc(Cl)cc1Cl : reported inhibition = 22.3

More entries:
Record summary for O=C(CN(c1cc(C(F)(F)F)ccc1Cl)S(=O)(=O)c1ccccc1)NCc1cccnc1 : reported inhibition = 0.66

Record summary for CC(=O)C1=C(O)C(=O)N(c2ccc(Br)cc2)C1c1ccc([N+](=O)[O-])cc1 (stereo not given) : reported inhibition = -18.5

Record summary for CCN(CC)C(=O)C1CCC(C)(C(=O)O)C1(C)C (stereo not given) : reported inhibition = 7.66

Record summary for COC(c1ccccc1)(c1ccccc1)C(Oc1nc(C)cc(C)n1)C(=O)O (stereo not given) : reported inhibition = 4.6

----------
Procedure Summary: TROY pathway blockers in reporter cells – Q293 LMP1-TROYcd cells, NF-kB luciferase, uHTS, primary screen (AID 1347056)
Setup Conditions: 4 h, at 10 µM, stronger effect = higher value
About 3,600 (1%) of roughly 360,000 compounds were called active. This is one part of a sample in which actives are shown more often than they occur.
# maps each entry to its inhibition
Express it in %; write the number only.

A selection of reference data follows.
Record summary for O=C(O)C1=C[C@H](c2cccs2)C[C@H](OCCCCO)O1 : reported inhibition = -7.03

Record summary for CN1OC[C@@H]2CN(S(=O)(=O)c3cccc(C(F)(F)F)c3)[C@H](c3ccc(-c4cc5ccccc5o4)cc3)C[C@@H]21 : reported inhibition = 64.2

Record summary for CCc1ccccc1NC(=O)CN(c1ccc(OC)cc1OC)S(=O)(=O)c1ccccc1[N+](=O)[O-] : reported inhibition = 1.82

Record summary for O=C(COC(=O)c1ccncc1)c1ccccc1 : reported inhibition = -18.8

Record summary for O=C(Oc1ccc(-c2nc(-c3ccccn3)no2)cc1)c1ccccc1 : reported inhibition = 60

More entries:
Record summary for Cc1cccc(C(=O)OC(C)CN2CCN(C)CC2)c1 (stereo unspecified) : reported inhibition = 58

Record summary for CCCCNC(=O)C[C@@H]1C[C@@]2(C(=O)OCC)CCC=C2N(Cc2ccco2)C1=O : reported inhibition = 1.34

Record summary for Cc1ccc(C(=O)OC(C)CN2CCOCC2)cc1 (stereo unspecified) : reported inhibition = -24.8

----------
Procedure Summary: TROY pathway blockers in reporter cells – Q293 LMP1-TROYcd cells, NF-kB luciferase, uHTS, primary screen (AID 1347056)
Setup Conditions: 4 h, at 10 µM
In all, about 360,000 compounds went through this assay and about 3,600 (1%) were called active.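 The calls were made as follows: active = compounds whose plate-normalised and pattern-corrected inhibition of the luciferase reporter signal at the single screening dose is 50% or more; inactive = the rest.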 What follows is part of a selection rich in actives, with near analogues and random picks from the rest.
Field 'call' accepts active, inactive

Use these answered entries as a reference point.
GET /call?item= CCCc1cc(=O)[nH]c2nnc(SCC(=O)Nc3nnc(SCC)s3)n12 returns the recorded outcome of this test.
inactive

GET /call?item= O=C(Nc1ccc(Br)c2cccnc12)c1ccc(Cn2cc([N+](=O)[O-])cn2)o1 returns the recorded outcome of this test.
inactive

GET /call?item= NC(=O)C1(C(N)=O)OC1c1ccc(Cl)cc1Cl (configuration not stated) returns the recorded outcome of this test.
inactive

GET /call?item= Cc1ccc(N2CCN(c3ccc([N+](=O)[O-])cn3)CC2)c(C)c1 returns the recorded outcome of this test.
inactive

GET /call?item= O=C(CNC(=O)OCc1ccccc1)Oc1cc2oc(=O)cc(-c3ccccc3)c2cc1Cl returns the recorded outcome of this test.
active

More entries:
GET /call?item= C/C(=N\Nc1nc(Nc2ccccc2)nc(N2CCOCC2)n1)c1cccs1 returns the recorded outcome of this test.
inactive

GET /call?item= CC1=CC(=NNS(=O)(=O)c2ccc([N+](=O)[O-])cc2)CC(C)(C)C1 returns the recorded outcome of this test.
inactive

GET /call?item= CCOc1c2ccc(C(=O)NC3CCCc4ccccc43)cc2nn1CC (configuration not stated) returns the recorded outcome of this test.
inactive

GET /call?item= CC1(c2ccccc2)NC(=O)N(CC(=O)Nc2cc(Cl)ccc2N2CCOCC2)C1=O (configuration not stated) returns the recorded outcome of this test.
inactive

GET /call?item= CCc1ccc(C(CNc2nc(C(F)(F)F)nc3ccccc23)N(C)C)cc1 (configuration not stated) returns the recorded outcome of this test.
inactive

GET /call?item= Cc1cccc(C(=O)Nc2ccc3c(c2)C(=O)N(CC(C)C)C3=O)c1 returns the recorded outcome of this test.
inactive
